experiment: Inhibition of full length HIV reverse transcriptase polymerase activity; set-up: species or system Human immunodeficiency virus
pIC50: −log10 of the molar value.
attribute.measured: pIC50

> print(dat)
                           substance.smiles  attribute.measured  quantitative.readout
1      O=C1Cc2c(Cc3ccc(F)cc3F)cccc2C(=O)N1O               pIC50                  5.03
2   O=C1Cc2cc(-c3ccc4c(c3)OCO4)ccc2C(=O)N1O               pIC50                  5.77
3     O=C1Cc2cc(-c3cc4ccccc4o3)ccc2C(=O)N1O               pIC50                  5.82
4           O=C1Cc2c(cccc2-c2ccco2)C(=O)N1O               pIC50                  5.68
5           O=C1Cc2ccc(-c3cccs3)cc2C(=O)N1O               pIC50                  5.60
6           O=C1Cc2cc(-c3cccs3)ccc2C(=O)N1O               pIC50                  5.77
7   O=C(Nc1ccc2c(c1)CC(=O)N(O)C2=O)c1ccccc1               pIC50                  6.40
8  COc1cc2c(cc1-c1ccc(F)cc1F)CC(=O)N(O)C2=O               pIC50                  5.54

---

experiment: Inhibition of full length HIV RT-RNase H activity using 18-nucleotide 3'-fluorescein-labeled RNA/5'-dabsyl-labeled DNA hybrid as substrate; set-up: species or system Human immunodeficiency virus
Output condition met for records whose IC50 is lower than 1000 nM, condition not met for records at or above 1000 nM.

> print(dat)
                            substance.smiles     category.label
 1  O=C(Nc1ccc2c(c1)CC(=O)N(O)C2=O)c1ccc(F)cc1      condition met
 2  O=C1Cc2c(Cc3ccc(C(F)(F)F)cc3)cccc2C(=O)N1O      condition met
 3    O=C1Cc2cc(-c3ccc(F)c(F)c3)ccc2C(=O)N1O  condition not met
 4  O=C(Cc1ccccc1)Nc1ccc2c(c1)CC(=O)N(O)C2=O      condition met
 5           O=C1Cc2c(cccc2-c2ccco2)C(=O)N1O  condition not met
 6     O=C1Cc2cc(-c3cc4ccccc4o3)ccc2C(=O)N1O  condition not met
 7  O=C(Cc1ccc(F)cc1)Nc1ccc2c(c1)CC(=O)N(O)C2=O      condition met
 8           O=C1Cc2cc(-c3ccoc3)ccc2C(=O)N1O  condition not met
 9     O=C1Cc2cc(-c3csc4ccccc34)ccc2C(=O)N1O  condition not met
10      O=C1Cc2c(cccc2-c2ccc(F)cc2F)C(=O)N1O  condition not met
11  COc1cc2c(cc1-c1ccc(F)cc1F)CC(=O)N(O)C2=O  condition not met
12       COc1cc2c(cc1-c1ccco1)CC(=O)N(O)C2=O  condition not met
13      O=C1Cc2c(Cc3ccc(Br)cc3)cccc2C(=O)N1O      condition met
14           O=C1Cc2cc(-c3cccs3)ccc2C(=O)N1O  condition not met
15      COc1cc2c(cc1-c1ccccc1)CC(=O)N(O)C2=O  condition not met
16           O=C1Cc2cc(-c3ccco3)ccc2C(=O)N1O  condition not met
17      O=C1Cc2c(Cc3ccc(F)cc3F)cccc2C(=O)N1O      condition met
18           O=C1Cc2ccc(-c3cccs3)cc2C(=O)N1O  condition not met
19   O=C1Cc2cc(-c3ccc4c(c3)OCO4)ccc2C(=O)N1O  condition not met
